Provide the recorded IC50 for the entries that follow.
experimental target: B-cat-Halo (beta-catenin HaloTag NanoBRET construct expressed in HEK293 cells) (UniProt P35222)
Sequence (P35222 whole entry): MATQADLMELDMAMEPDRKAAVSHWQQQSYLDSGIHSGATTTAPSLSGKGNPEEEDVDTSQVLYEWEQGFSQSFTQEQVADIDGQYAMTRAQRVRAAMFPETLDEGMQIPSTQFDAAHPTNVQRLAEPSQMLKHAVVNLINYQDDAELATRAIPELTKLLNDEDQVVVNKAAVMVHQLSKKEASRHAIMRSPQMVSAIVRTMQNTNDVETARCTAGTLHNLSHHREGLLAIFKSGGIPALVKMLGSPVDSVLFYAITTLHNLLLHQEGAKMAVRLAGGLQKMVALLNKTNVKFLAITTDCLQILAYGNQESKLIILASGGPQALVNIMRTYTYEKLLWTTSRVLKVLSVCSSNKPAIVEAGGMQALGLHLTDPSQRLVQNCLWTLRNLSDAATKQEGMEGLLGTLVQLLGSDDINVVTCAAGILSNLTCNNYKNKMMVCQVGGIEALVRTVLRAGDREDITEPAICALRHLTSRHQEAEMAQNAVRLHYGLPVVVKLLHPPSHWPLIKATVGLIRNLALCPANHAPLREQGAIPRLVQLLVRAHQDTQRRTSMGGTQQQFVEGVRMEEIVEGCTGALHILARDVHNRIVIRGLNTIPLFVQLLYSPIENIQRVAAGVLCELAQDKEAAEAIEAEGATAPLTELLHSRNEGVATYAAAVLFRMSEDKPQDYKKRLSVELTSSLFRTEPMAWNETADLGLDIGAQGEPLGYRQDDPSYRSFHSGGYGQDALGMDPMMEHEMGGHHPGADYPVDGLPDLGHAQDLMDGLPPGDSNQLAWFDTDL
test: NanoBRET in HEK293 cells, Bcat-Halo + TCF4-Luc (competitor partner TCF4)
Starred links: 1 amine or outer side, 2 acyl side, 3 side chain; linkers in the order of their positions; H or OH if unused. Positions of bridges follow the written chain, without caps; N, C: chain ends. Non-standard residues stand in square brackets, D forms with d. Primed or numbered codes have the meaning given here. PyrS2″ = (S)-3-amino-1-((pent-4-en-1-yloxy)carbonyl)pyrrolidine-3-carboxylic acid (stapling residue), C=CCCCOC(=O)N1CC[C@@](N[*:1])(C(=O)[*:2])C1; B5(5) = 2,2-bis(4-pentenyl)glycine, 2-amino-2-(pent-4-en-1-yl)hept-6-enoic acid (stitching residue), C=CCCCC(CCCC=C)(N[*:1])C(=O)[*:2]; PyrS2 = (S)-3-amino-1-((pent-4-en-1-yloxy)carbonyl)pyrrolidine-3-carboxylic acid, C=CCCCOC(=O)N1CC[C@@](N[*:1])(C(=O)[*:2])C1; B5(13) = 2-amino-2-(pent-4-en-1-yl)hept-6-enoic acid (two alkene chains), C=CCCCC(CCCC=C)(N[*:1])C(=O)[*:2]; B5(3) = 2,2-bis(4-pentenyl)glycine (stitching residue), C=CCCCC(CCCC=C)(N[*:1])C(=O)[*:2]; Phe(2-Cl) = N[C@@H](Cc1ccccc1Cl)C(=O)O; Phe(2-OMe) = COc1ccccc1C[C@H](N)C(=O)O; Bta = N[C@@H](Cc1csc2ccccc12)C(=O)O; αAllylPro = C=CC[C@@]1(C(=O)O)CCCN1; tBuAla = CC(C)(C)C[C@H](N)C(=O)O; 3Thi = N[C@@H](Cc1ccsc1)C(=O)O
State just the number; it will be interpreted in µM.

Request: // returns reported IC50 for input Ac-[αAllylPro]D[tBuAla][B5(5)]DDAAFN[PyrS2][Phe(2-Cl)][Bta]H-NH2 (staple 1-4, 4-11) [I-784]
Result: 12.1

Request: Likewise for Ac-[αAllylPro]D[tBuAla][B5(13)]DDAAFN[PyrS2][Phe(2-OMe)][Bta]H-NH2 (staple 1-4, 4-11) [I-781] ?
Result: 11.6

Request: Moving on to the next binder: Ac-[αAllylPro]D[tBuAla][B5(3)]DDAAFF[PyrS2″][3Thi][Bta]Q-NH2 (staple 1-4, 4-11) [I-807]
Result: 5.3

Request: // same read-out, input: Ac-[αAllylPro]D[tBuAla][B5(5)]DEAAFN[PyrS2][3Thi][Bta]-NH2 (staple 1-4, 4-11) [I-786]
Result: 17.1
